// reported remaining at 3 h, 500 μM per item
test_name: plasma stability in 50% human plasma
Assay type: in vitro ADME
details: 50% human plasma, 500 μM, HPLC; read-out: parent peptide remaining after 3 hours
Square brackets hold non-standard residues; d marks the D form. Peptide text beside a SMILES is read from it. Tyr(3-NO2) = N[C@@H](Cc1ccc(O)c([N+](=O)[O-])c1)C(=O)O; 2Abz = Nc1ccccc1C(=O)O; Dap = NC[C@H](N)C(=O)O
observed_property: remaining at 3 h, 500 μM

• CC(C)C[C@H](NC(=O)[C@H](CCCNC(=N)N)NC(=O)[C@H](CCCNC(=N)N)NC(=O)[C@H](Cc1ccccc1)NC(=O)[C@H](C)NC(=O)[C@H](CCCCN)NC(=O)CNC(=O)[C@@H](N)Cc1ccc(O)c([N+](=O)[O-])c1)C(=O)NCC(=O)N[C@@H](CCCCNC(=O)c1ccccc1N)C(=O)O [Y′GKAFRRLGK′] (H-[Tyr(3-NO2)]GKAFRRLGK(2Abz)-OH) = ~25%
• C[C@H](NC(=O)[C@H](CCCCN)NC(=O)CNC(=O)[C@@H](N)Cc1ccc(O)c([N+](=O)[O-])c1)C(=O)N[C@@H](Cc1ccccc1)C(=O)N[C@@H](CCCNC(=N)N)C(=O)N[C@@H](CCCNC(=N)N)C(=O)N[C@@H](CN)C(=O)NCC(=O)N[C@@H](CCCCNC(=O)c1ccccc1N)C(=O)O [Y′GKAFRR-Dap-GK′] (H-[Tyr(3-NO2)]GKAFRR[Dap]GK(2Abz)-OH; N-terminus assumed) = ~25%

Measured values drawn from patent US7906477B2 for this set.
